target: CDK-2 enzyme, complexed with cyclin A (Homo sapiens); experiment: CDK2 enzyme inhibition assay (33P phosphorylation of peptide […], filter plate); conditions: CDK-2/cyclin A, 0.1 mM ATP, 40 min at 30° C.
pIC50: −log10 of the molar value.
property name: pIC50

Cc1cccc(-c2cc(Nc3ccc(S(=O)(=O)Nc4ccccn4)cc3)n3nccc3n2)c1 [Example 18] = 6.02
CCc1cnn2c(Nc3ccc(S(=O)(=O)N(C)C)cc3)cc(N[C@H]3CC[C@H](N)CC3)nc12 [Example 57] = 7.16
CCc1cnn2c(Nc3ccc(S(C)(=O)=O)cc3)cc(OCC(C)C)nc12 [Example 44] = 6.75
Cc1cccc(-c2cc(Nc3ccc(S(=O)(=O)Nc4nccs4)cc3)n3nccc3n2)c1 [Example 17] = 5.50
CN(C)S(=O)(=O)c1cccc(Nc2cc(N[C@H]3CC[C@H](N)CC3)nc3c(Br)cnn23)c1 [Example 94] = 7.15

P. CN(C)S(=O)(=O)c1ccc(Nc2cc(N[C@H]3CC[C@H](N)CC3)nc3c(-c4ccccc4)cnn23)cc1 [Example 163]
Q. CS(=O)(=O)c1ccc(Nc2cc(OC3CCCCC3)nc3ccnn23)cc1 [Example 21]
Task: Decide: P or Q , by lowest recorded pIC50. Select an item and report its label.
Result: P
(P: 5.00, Q: 5.88)

A. CC(C)c1cnn2c(Nc3ccc(S(=O)(=O)N(C)C)cc3)cc(C(=O)NCCN(C)C)nc12 [Example 122]
B. CC(C)c1cnn2c(Nc3ccc(S(C)(=O)=O)cc3)cc(N(C)CCO)nc12 [Example 59]
C. CN(C)CCNS(=O)(=O)c1ccc(Nc2cc(Cl)nc3c(Br)cnn23)cc1 [Example 135]
Task: Please list these in order of increasing pIC50. Thank you! To answer, arrange all of the labels according to the requested order.
Result: A, B, C
(A: 5.50, B: 6.11, C: 7.09)

1. CC(C)COc1cc(Nc2ccc(S(C)(=O)=O)cc2)n2ncc(C(C)C)c2n1 [Example 41]
2. CCNC(=O)c1cc(Nc2ccc(S(=O)(=O)N(C)C)cc2)n2ncc(C(C)C)c2n1 [Example 115]
3. CC(C)c1cnn2c(Nc3ccc(S(=O)(=O)N(C)C)cc3)cc(N[C@H]3CC[C@H](NC(=O)CN(C)C)CC3)nc12 [Example 86]
Task: Endpoint returns the given molecules ordered by ascending pIC50. Return value: ordered labels per request.
Result: 2, 1, 3

P. CC(C)c1cnn2c(Nc3ccc(S(=O)(=O)N(C)C)cc3)cc(N[C@H]3CC[C@H](O)CC3)nc12 [Example 101]
Q. CC(C)c1cnn2c(Nc3ccc(S(=O)(=O)N(C)C)cc3)cc(NC3CCCC(N)C3)nc12 (stereo not shown) [Example 113]
Task: Hi! Which is lower in terms of pIC50, the first one P or the second one Q ? // respond with label for picked entry
Result: Q

###

molecular target: CDK-2 enzyme, complexed with cyclin A (Homo sapiens); assay: CDK2 enzyme inhibition assay (33P phosphorylation of peptide […], filter plate); conditions: CDK-2/cyclin A, 0.1 mM ATP, 40 min at 30° C.
pIC50: −log10 of the molar value.
property name: pIC50

// solved cases for pIC50 follow
CC(C)c1cnn2c(Nc3ccc(S(=O)(=O)N(C)C)cc3)cc(N3CCCC3CO)nc12 (stereo not shown) = 6.75
CCc1cnn2c(Nc3ccc(S(=O)(=O)N(C)C)cc3)cc(NC3CC(C)(C)NC(C)(C)C3)nc12 = 4.65
CC(C)c1cnn2c(Nc3ccc(S(=O)(=O)N(C)C)cc3)cc(C(=O)N3CCC(CN)CC3)nc12 = 5.03
CC(C)c1cnn2c(Nc3ccc(S(=O)(=O)N(C)C)cc3)cc(N3CCCC(CO)C3)nc12 (stereo not shown) = 6.41
CC(C)c1cnn2c(Nc3ccc(S(=O)(=O)N(C)C)cc3)cc(N(C)CCCN(C)C)nc12 = 5.14

1. CC(C)Oc1cc(Nc2ccc(S(=O)(=O)N(C)C)cc2)n2ncc(C(C)C)c2n1
2. CC(C)COc1cc(Nc2ccc(S(=O)(=O)N(C)CCO)cc2)n2ncc(C(C)C)c2n1
Task: Would you kindly point out which of 1 and 2 has the smaller pIC50 figure? Answer by quoting the chosen item's label.
Result: 1

###

target: PDK1 enzyme (Homo sapiens); assay: PDK1 kinase inhibition assay (33P phosphorylation of synthetic peptide, filter plate); type: biochemical; settings: 0.01 mM ATP, 60 min at 30° C.; read-out: PDK1 IC50
Sequence (O15530 whole entry): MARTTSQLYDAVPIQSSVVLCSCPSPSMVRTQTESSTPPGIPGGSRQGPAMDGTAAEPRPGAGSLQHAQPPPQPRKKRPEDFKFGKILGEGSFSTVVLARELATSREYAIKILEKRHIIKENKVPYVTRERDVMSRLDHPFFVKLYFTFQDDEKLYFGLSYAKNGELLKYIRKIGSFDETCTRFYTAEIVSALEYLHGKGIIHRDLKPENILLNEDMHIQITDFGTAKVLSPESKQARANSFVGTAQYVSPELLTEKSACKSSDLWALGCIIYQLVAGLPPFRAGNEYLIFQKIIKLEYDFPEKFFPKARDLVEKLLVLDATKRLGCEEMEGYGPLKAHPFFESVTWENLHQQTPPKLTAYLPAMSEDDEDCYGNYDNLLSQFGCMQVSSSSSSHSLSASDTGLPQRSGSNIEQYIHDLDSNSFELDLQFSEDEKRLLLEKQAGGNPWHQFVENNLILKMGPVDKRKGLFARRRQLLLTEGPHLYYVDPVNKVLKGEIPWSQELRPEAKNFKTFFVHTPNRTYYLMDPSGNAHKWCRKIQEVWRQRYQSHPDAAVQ
property name: IC50

Would you please look over these solved cases?
Cc1cccc(-c2cc(Nc3ccc(S(=O)(=O)Nc4ccccn4)cc3)n3nccc3n2)c1 = > 200 µM
CN(C)S(=O)(=O)c1ccc(Nc2cc(N[C@H]3CC[C@@H](N)CC3)nc3c(Br)cnn23)cc1 = 5.29 µM
O=S(=O)(c1ccc(Nc2ccnc3ccnn23)cc1)N1CCOCC1 = > 200 µM
CC(C)c1cnn2c(Nc3ccc(S(=O)(=O)N4CCC(O)CC4)cc3)cc(Cl)nc12 = > 200 µM
CC(C)c1cnn2c(Nc3ccc(S(=O)(=O)N(C)CCO)cc3)cc(OCCN(C)C)nc12 = > 200 µM
CCN(CC)c1cc(Nc2ccc(S(=O)(=O)N(C)C)cc2)n2ncc(C(C)C)c2n1 = > 200 µM
N[C@H]1CC[C@H](Nc2cc(Nc3ccc(Oc4ccccc4)cc3)n3ncc(Br)c3n2)CC1 = 109 µM

Task: Recorded IC50 for `CC(C)c1cnn2c(Nc3ccc(S(C)(=O)=O)cc3)ccnc12` , please?
Result: > 200 µM

###

target: PDK1 enzyme (Homo sapiens); test: PDK1 kinase inhibition assay (33P phosphorylation of synthetic peptide, filter plate); assay type: biochemical; details: 0.01 mM ATP, 60 min at 30° C.; read-out: PDK1 IC50
property name: IC50 (µM)

CC(C)c1cnn2c(Nc3ccc(S(=O)(=O)NCCN(C)C)cc3)cc(Cl)nc12 = 9.49
CSc1cnn2c(Nc3ccc(Oc4cncc(Cl)c4)cc3)cc(N[C@H]3CC[C@H](N)CC3)nc12 = 4.48
CC(C)c1cnn2c(Nc3ccc(S(=O)(=O)N(C)C)cc3)cc(NC3CCC(N)C3)nc12 (centres unmarked) = 13

1. CCc1cnn2c(Nc3ccc(S(C)(=O)=O)cc3)cc(N[C@H]3CC[C@@H](N)CC3)nc12
2. CNS(=O)(=O)c1ccc(Nc2cc(N[C@H]3CC[C@H](N)CC3)nc3c(C(C)C)cnn23)cc1 [Example 67]
3. CC(C)c1cnn2c(Nc3ccc(S(=O)(=O)N(C)C)cc3)cc(NCC3CCNCC3)nc12
4. CCc1cnn2c(Nc3ccc(C(N)=O)cc3)cc(Cl)nc12
Task: Exam item: list the entries in increasing order of IC50. Reply format: the labels, ordered as requested.
Result: 3, 2, 1, 4

###

biological target: GST-Chk1 enzyme (Homo sapiens, UniProt O14757); assay: Chk1 kinase inhibition assay (33P phosphorylation of Chktide, filter plate); type: biochemical; details: 0.01 mM ATP, 11 nM GST-Chk1, 40 minutes at 30° C.; read-out: Chk1 IC50
Sequence (O14757 whole entry): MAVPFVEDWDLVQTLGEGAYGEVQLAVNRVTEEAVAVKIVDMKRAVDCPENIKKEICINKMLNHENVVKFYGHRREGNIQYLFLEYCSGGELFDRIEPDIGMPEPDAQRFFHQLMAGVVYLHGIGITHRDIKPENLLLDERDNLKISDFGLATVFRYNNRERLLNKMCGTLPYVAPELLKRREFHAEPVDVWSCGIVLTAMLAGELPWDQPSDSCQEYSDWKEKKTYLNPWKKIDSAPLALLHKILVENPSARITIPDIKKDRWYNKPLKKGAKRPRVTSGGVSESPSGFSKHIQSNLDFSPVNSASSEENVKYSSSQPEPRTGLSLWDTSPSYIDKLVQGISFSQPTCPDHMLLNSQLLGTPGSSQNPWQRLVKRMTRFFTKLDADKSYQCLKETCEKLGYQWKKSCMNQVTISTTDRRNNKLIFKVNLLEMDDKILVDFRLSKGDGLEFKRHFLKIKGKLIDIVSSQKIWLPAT
pIC50: −log10 of the molar value.
property name: pIC50

N[C@H]1CC[C@H](Nc2cc(Nc3ccc(Oc4ccccc4)cc3)n3ncc(Br)c3n2)CC1 = 6.00
CSc1cnn2c(Nc3ccc(Oc4cncc(Cl)c4)cc3)cc(N[C@H]3CC[C@H](N)CC3)nc12 = 5.68
CC(C)c1cnn2c(Nc3ccc(S(=O)(=O)N4CCCC4)cc3)cc(N[C@H]3CC[C@H](N)CC3)nc12 = 5.49
CC(C)c1cnn2c(Nc3ccc(S(=O)(=O)N(C)C)cc3)cc(NCCN)nc12 = 4.73
CC(C)c1cnn2c(Nc3ccc(S(=O)(=O)N(C)C)cc3)cc(N(C)C3CCN(C)CC3)nc12 = 4.79
N[C@H]1CC[C@H](Nc2cc(Nc3ccc(S(=O)(=O)c4ccccc4)cc3)n3ncc(Br)c3n2)CC1 = 6.14
CN(C)S(=O)(=O)c1ccc(Nc2cc(O[C@@H]3CCNC3)nc3c(Cl)cnn23)cc1 = 5.11
CN(C)S(=O)(=O)c1ccc(Nc2cc(N[C@H]3CC[C@H](N)CC3)nc3c(C#N)cnn23)cc1 = 6.48

A. CC(C)c1cnn2c(Nc3ccc(S(=O)(=O)N(C)C)cc3)cc(N[C@H]3CCNC3)nc12
B. CCCN(CCC)[C@H]1CC[C@H](Nc2cc(Nc3ccc(S(=O)(=O)N(C)C)cc3)n3ncc(C(C)C)c3n2)CC1
Task: Which entry shows the lesser value of pIC50 here, A or B ? Write the label of whichever entry you select.
Result: B

a. CN(C)S(=O)(=O)c1cccc(Nc2cc(N[C@H]3CC[C@H](N)CC3)nc3c(Br)cnn23)c1
b. NC(=O)c1ccc(Nc2cc(Cl)nc3c(Br)cnn23)cc1
Task: Compare reported pIC50 values for a and b . Which is lower? Give the label of your selection.
Result: a
(a: 4.57, b: 4.96)

a. CC1(C)CC(Nc2cc(Nc3ccc(S(=O)(=O)Nc4nccs4)cc3)n3ncc(Br)c3n2)CC(C)(C)N1
b. N[C@H]1CC[C@H](Nc2cc(Nc3cccc(Cl)c3)n3ncc(Cl)c3n2)CC1
Task: Min pIC50? a | b // respond with label for picked entry
Result: a
(a: 4.77, b: 5.67)
